meta.source: patent US12461089B2

Molecular target: OR5AN1 (Homo sapiens, UniProt Q8NGI8, E89G)
Construct: expressed in transfected cells; host or cells: HEK293T-RTP1A1/RTP2
Sequence (Q8NGI8 1-311 E89G): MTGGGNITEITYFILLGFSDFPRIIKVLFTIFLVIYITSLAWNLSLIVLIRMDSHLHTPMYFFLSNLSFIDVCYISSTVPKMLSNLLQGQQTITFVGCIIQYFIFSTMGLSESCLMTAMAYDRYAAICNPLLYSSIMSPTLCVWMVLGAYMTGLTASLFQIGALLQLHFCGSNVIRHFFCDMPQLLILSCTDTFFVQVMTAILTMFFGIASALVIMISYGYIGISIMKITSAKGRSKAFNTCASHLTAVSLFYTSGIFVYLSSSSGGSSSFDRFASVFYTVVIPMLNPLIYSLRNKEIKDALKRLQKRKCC
Assay: Luciferase reporter concentration-response analysis on OR5AN1
Assay type: cell-based
property-measured: EC50

According to the records, this compound Cc1c([N+](=O)[O-])c(C)c([N+](=O)[O-])c(C(C)(C)C)c1[N+](=O)[O-] [Musk Xylene] displays EC50 of 661 nM
